assay: Ratio of unbound AUC (0 to 7 hrs) in CSF to blood of Han Wistar rat at 2 mg/kg, po by LC-MS/MS analysis; format: ADME, organism-based; details: Han Wistar, CSF and blood
Assay metric: Kp uu

1) COc1cc2ncnc(Nc3ccc(F)c(Cl)c3)c2cc1N1CCOCC1 ... 0.79
2) COc1cc2ncnc(Nc3cccc(Cl)c3F)c2cc1OC(=O)N1CC[C@H](N(C)C)C1 ... 0.56
3) COc1cc2ncnc(Nc3cccc(Cl)c3F)c2cc1CN1CCOCC1 ... 0.76

====

target: Cytochrome P450 3A4 (Homo sapiens, UniProt P08684); assay: Inhibition of human CYP3A4; assay type: ADME
Sequence (P08684 whole entry): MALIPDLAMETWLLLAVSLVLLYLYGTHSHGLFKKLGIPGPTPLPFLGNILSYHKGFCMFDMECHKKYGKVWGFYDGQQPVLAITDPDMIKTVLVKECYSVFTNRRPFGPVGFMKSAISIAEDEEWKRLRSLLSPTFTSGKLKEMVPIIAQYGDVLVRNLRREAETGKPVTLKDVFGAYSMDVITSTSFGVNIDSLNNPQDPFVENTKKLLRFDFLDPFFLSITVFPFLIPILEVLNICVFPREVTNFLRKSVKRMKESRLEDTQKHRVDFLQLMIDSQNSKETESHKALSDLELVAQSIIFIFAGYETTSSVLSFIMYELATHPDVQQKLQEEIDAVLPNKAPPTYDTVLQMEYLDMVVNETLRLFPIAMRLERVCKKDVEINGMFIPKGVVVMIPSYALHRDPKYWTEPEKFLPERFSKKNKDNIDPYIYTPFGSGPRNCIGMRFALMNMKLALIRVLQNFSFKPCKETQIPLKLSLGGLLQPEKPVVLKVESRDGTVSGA
pIC50: −log10 of the molar value.
Assay metric: pIC50

1. COc1cc2ncnc(Nc3cccc(Cl)c3F)c2cc1CN1CCOCC1 ... < 5.00
